Molecular target: T1, Mex67ΔUBA L263A+M265A;Mtr2 (Saccharomyces cerevisiae;Saccharomyces …, UniProt Q99257;P34232 1-487;1-184, L263A;M265A|)
T1 sequence 1: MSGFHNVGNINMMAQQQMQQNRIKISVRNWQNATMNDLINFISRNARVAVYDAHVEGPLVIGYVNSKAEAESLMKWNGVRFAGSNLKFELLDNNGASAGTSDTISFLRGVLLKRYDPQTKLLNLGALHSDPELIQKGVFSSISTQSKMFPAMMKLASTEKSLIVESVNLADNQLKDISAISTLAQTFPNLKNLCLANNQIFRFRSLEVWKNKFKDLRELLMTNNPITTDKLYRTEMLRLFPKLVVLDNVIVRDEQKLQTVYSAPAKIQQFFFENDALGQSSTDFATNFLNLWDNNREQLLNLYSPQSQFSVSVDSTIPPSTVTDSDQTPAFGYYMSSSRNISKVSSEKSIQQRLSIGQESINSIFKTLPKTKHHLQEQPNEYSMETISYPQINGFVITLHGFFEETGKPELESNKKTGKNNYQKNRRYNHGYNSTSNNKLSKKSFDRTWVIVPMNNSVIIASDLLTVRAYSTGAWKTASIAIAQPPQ
T1 sequence 2: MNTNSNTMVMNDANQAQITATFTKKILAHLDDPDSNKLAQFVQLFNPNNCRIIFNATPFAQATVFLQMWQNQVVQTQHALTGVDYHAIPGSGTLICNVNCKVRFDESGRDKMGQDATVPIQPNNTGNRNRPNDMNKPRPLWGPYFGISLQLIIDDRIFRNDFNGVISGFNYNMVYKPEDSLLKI
Experiment: fluorescence anisotropy; 20 mM Tris pH 8.0, 50 mM NaCl, 10 nM DY-547 RNA; temperature not stated
Settings: protein: recombinant;recombinant; tags: His6 removed by TEV;; copies: 1;1
quantity.measured: Kd (nM)
Numbers only, in nM.

Lookup: I have this binder here, AAAAAAAAAAAAAAA (ssRNA) [A15] , and I need its recorded Kd.
Found: 640
